Reference for the values: paper PMC3098231

- tgt: human alpha-thrombin (Homo sapiens, UniProt P00734;P00734 328-363;364-622)
- protocol-text: SPR imaging (k-1/k1); 50 nM thrombin; 20 mM Tris-HCl pH 7.4, 140 mM NaCl, 5 mM KCl, 1 mM CaCl2, 1 mM MgCl2; SPR at 25 C; EMSA in the same selection buffer, 14% native PAGE in 1X Tris-glycine at 4 C
readout-label: pKd
Give bare numbers, as −log10 of the molar value.

> print(dat)
                                     binder  value.reported
1  ACACGCGCATGCGGTTGGTGTGGTTTGGCATGCGCCACA (structured_DNA, 3'-thiol for SPR) [Motif Ia rank 3 hairpin]            6.77
2  ACACGCGCATGCGGTTGGTGCGGTTGGGCATGCGCCACA (structured_DNA, 3'-thiol for SPR) [Motif Ia rank 25 hairpin]            5.66

Task item: Quick one: pKd of ACACGCGCATGCGGTTGGTTTGGTTGGGCATGCGCCACA (structured_DNA, 3'-thiol for SPR) [Motif Ia rank 9 hairpin] ?
Reply: 6.19
